Assay: Time dependent organ distribution of CPT after intranasal administration of DLPC liposomes
Type: in vivo
Settings: other: intranasal instillation; Kidney, 30 min; mice, intranasal DLPC liposomal CPT 7 μg per mouse; read-out: CPT in tissue
Protocol: The mobile phase was 30% acetonitrile and 70% of 0.1% glacial acetic acid. CPT was detected using the Waters 470 scanning fluorescence detector set to an excitation wavelength of 370 nm and an emission wavelength of 440 nm. […] The data were analyzed with the Waters Millenium software. […] CPT was administered in liposomal formulation prepared with DLPC with initial drug concentration 0.2 mg/ml. 35 μL of suspension was installed to each animal (group of 3 animals was treated for each time point).
measured.attribute: concentration at 30 min (ng/g)
Number in ng/g, nothing else.

Query: Can you look up the measured concentration at 30 min of `CC[C@@]1(O)C(=O)OCc2c1cc1n(c2=O)Cc2cc3ccccc3nc2-1` for me?
Reply: 49

====

Experiment: Time dependent organ distribution of CPT after intranasal administration of DLPC liposomes
Type: in vivo
Settings: other: intranasal instillation; Liver, 60 min; mice, intranasal DLPC liposomal CPT 7 μg per mouse; read-out: CPT in tissue
measured.attribute: concentration at 60 min (ng/g)
Give your result in ng/g as a bare value.

Query: GET /values?readout=concentration at 60 min&item= CC[C@@]1(O)C(=O)OCc2c1cc1n(c2=O)Cc2cc3ccccc3nc2-1 [CPT, 20-S-camptothecin]
Reply: 34

====

Test: Time dependent organ distribution of CPT after intramuscular administration
Type: in vivo
Settings: mouse, 7 μg per mouse, Kidney, 1200 min, mice, i.m. CPT in DMSO/saline suspension, read-out: CPT in tissue
measured.attribute: concentration at 1200 min (ng/g)
Write the answer as a number in ng/g, unit excluded.

Query: // query concentration at 1200 min value for entry CC[C@@]1(O)C(=O)OCc2c1cc1n(c2=O)Cc2cc3ccccc3nc2-1 [CPT, 20-S-camptothecin]
Reply: 15

====

Experiment: Time dependent organ distribution of CPT after intramuscular administration
Assay type: in vivo
Details: mouse, 7 µg/mouse, Lung, 60 min, mice, i.m. CPT in DMSO/saline suspension, read-out: CPT in tissue
measured.attribute: concentration at 60 min (ng/g)
Kindly answer with a numeric value in ng/g, unit omitted.

Query: So what's the measured concentration at 60 min for this one? `CC[C@@]1(O)C(=O)OCc2c1cc1n(c2=O)Cc2cc3ccccc3nc2-1`
Reply: 3

====

Assay: Time dependent organ distribution of CPT after intranasal administration of DLPC liposomes
Format: in vivo
Details: other: intranasal instillation; Liver, 15 min; mice, intranasal DLPC liposomal CPT 7 μg per mouse; read-out: CPT in tissue
measured.attribute: concentration at 15 min (ng/g)
Note: unit ng/g is implicit; provide only the numeric part.

Query: concentration at 15 min lookup needed for `CC[C@@]1(O)C(=O)OCc2c1cc1n(c2=O)Cc2cc3ccccc3nc2-1` , thanks.
Reply: 255

====

Assay: Time dependent organ distribution of CPT after intramuscular administration
Format: in vivo
Details: mouse, 7 μg per mouse, Spleen, 30 min, mice, i.m. CPT in DMSO/saline suspension, read-out: CPT in tissue
measured.attribute: concentration at 30 min (ng/g)
Unit ng/g implied. Number only.

Query: Quick one: concentration at 30 min for `CC[C@@]1(O)C(=O)OCc2c1cc1n(c2=O)Cc2cc3ccccc3nc2-1` ?
Reply: 18
